Assay protocol: total protein half-life in vivo (active degradation + dilution); higher = more stable protein
Measurement conditions: E. coli NCM3722 delta-lon; growth: N-lim chemostat; doubling time 6 h
Answer no (0) if total protein half-life in vivo is under 3 h, and yes (1) if it is 3 h or more.

>  <Item sequence>
MNLSTKQKQHLKGLAHPLKPVVLLGSNGLTEGVLAEIEQALEHHELIKVKIATEDRETKTLIVEAIVRETGACNVQVIGKTLVLYRPTKERKISLPR [P0AGK4]

>  <Group label>
yes (1)

$$$$
>  <Item sequence>
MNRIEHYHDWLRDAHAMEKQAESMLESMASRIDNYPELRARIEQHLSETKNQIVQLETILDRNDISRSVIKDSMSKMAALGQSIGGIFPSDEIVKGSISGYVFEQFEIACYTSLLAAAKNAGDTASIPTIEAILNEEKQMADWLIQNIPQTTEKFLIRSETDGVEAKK

>  <Group label>
yes (1)

$$$$
>  <Item sequence>
MMYHIPGVLSPQDVARFREQLEQAEWVDGRVTTGAQGAQVKNNQQVDTRSTLYAALQNEVLNAVNQHALFFAAALPRTLSTPLFNRYQNNETYGFHVDGAVRSHPQNGWMRTDLSATLFLSDPQSYDGGELVVNDTFGQHRVKLPAGDLVLYPSSSLHCVTPVTRGVRVASFMWIQSMIRDDKKRAMLFELDNNIQSLKSRYGESEEILSLLNLYHNLLREWSEI

>  <Group label>
yes (1)

$$$$
>  <Item sequence>
MKTMLAAYLPGNSTVDLREVAVPTPGINQVLIKMKSSGICGSDVHYIYHQHRATAAAPDKPLYQGFINGHEPCGQIVAMGQGCRHFKEGDRVLVYHISGCGFCPNCRRGFPISCTGEGKAAYGWQRDGGHAEYLLAEEKDLILLPDALSYEDGAFISCGVGTAYEGILRGEVSGSDNVLVVGLGPVGMMAMMLAKGRGAKRIIGVDMLPERLAMAKQLGVMDHGYLATTEGLPQIIAELTHGGADVALDCSGNAAGRLLALQSTADWGRVVYIGETGKVEFEVSADLMHHQRRIIGSWVTSLFHMEKCAHDLTDWKLWPRNAITHRFSLEQAGDAYALMASGKCGKVVINFPD

>  <Group label>
no (0)

$$$$
>  <Item sequence>
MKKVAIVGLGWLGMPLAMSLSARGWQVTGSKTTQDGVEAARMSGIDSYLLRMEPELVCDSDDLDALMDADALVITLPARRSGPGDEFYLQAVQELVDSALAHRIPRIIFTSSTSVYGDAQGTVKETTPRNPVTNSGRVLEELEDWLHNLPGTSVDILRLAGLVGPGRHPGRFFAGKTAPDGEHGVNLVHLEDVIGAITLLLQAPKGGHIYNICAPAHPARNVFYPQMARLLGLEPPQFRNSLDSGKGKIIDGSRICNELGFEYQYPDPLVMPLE [P0AD12]

>  <Group label>
yes (1)

$$$$

Okay, now this sequence:
Does MIGRLLRGGFMTAIYAYLYIPIIILIVNSFNSSRFGINWQGFTTKWYSLLMNNDSLLQAAQHSLTMAVFSATFATLIGSLTAVALYRYRFRGKPFVSGMLFVVMMSPDIVMAISLLVLFMLLGIQLGFWSLLFSHITFCLPFVVVTVYSRLKGFDVRMLEAAKDLGASEFTILRKIILPLAMPAVAAGWVLSFTLSMDDVVVSSFVTGPSYEILPLKIYSMVKVGVSPEVNALATILLVLSLVMVIASQLIARDKTKGNTGDVK [P0AFK6] have a reported total protein half-life in vivo of at least 3 h? yes (1)
